Median dimer activity (recombination on loxP): recorded values
- TESTED ON: T1, Cre recombinase monomer with Q311R mutation
- T1 chain: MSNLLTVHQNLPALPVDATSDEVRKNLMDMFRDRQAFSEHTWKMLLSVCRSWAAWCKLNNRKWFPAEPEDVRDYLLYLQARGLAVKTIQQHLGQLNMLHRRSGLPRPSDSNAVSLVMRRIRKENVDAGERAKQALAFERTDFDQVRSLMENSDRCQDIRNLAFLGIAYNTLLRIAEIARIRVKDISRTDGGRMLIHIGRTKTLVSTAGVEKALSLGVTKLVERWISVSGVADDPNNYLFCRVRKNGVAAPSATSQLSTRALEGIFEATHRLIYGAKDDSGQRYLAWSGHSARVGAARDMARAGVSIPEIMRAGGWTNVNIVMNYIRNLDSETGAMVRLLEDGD
State just the number; it will be interpreted in %.

Use the examples below as a reference point.
>>> reported_result("Cre recombinase monomer with H289R mutation (protein) MSNLLTVHQNLPALPVDATSDEVRKNLMDMFRDRQAFSEHTWKMLLSVCRSWAAWCKLNNRKWFPAEPEDVRDYLLYLQARGLAVKTIQQHLGQLNMLHRRSGLPRPSDSNAVSLVMRRIRKENVDAGERAKQALAFERTDFDQVRSLMENSDRCQDIRNLAFLGIAYNTLLRIAEIARIRVKDISRTDGGRMLIHIGRTKTLVSTAGVEKALSLGVTKLVERWISVSGVADDPNNYLFCRVRKNGVAAPSATSQLSTRALEGIFEATHRLIYGAKDDSGQRYLAWSGRSARVGAARDMARAGVSIPEIMQAGGWTNVNIVMNYIRNLDSETGAMVRLLEDGD")
79
>>> reported_result("Cre recombinase monomer with E176M mutation (protein) MSNLLTVHQNLPALPVDATSDEVRKNLMDMFRDRQAFSEHTWKMLLSVCRSWAAWCKLNNRKWFPAEPEDVRDYLLYLQARGLAVKTIQQHLGQLNMLHRRSGLPRPSDSNAVSLVMRRIRKENVDAGERAKQALAFERTDFDQVRSLMENSDRCQDIRNLAFLGIAYNTLLRIAMIARIRVKDISRTDGGRMLIHIGRTKTLVSTAGVEKALSLGVTKLVERWISVSGVADDPNNYLFCRVRKNGVAAPSATSQLSTRALEGIFEATHRLIYGAKDDSGQRYLAWSGHSARVGAARDMARAGVSIPEIMQAGGWTNVNIVMNYIRNLDSETGAMVRLLEDGD")
82
>>> reported_result("Cre recombinase monomer with K201F mutation (protein) MSNLLTVHQNLPALPVDATSDEVRKNLMDMFRDRQAFSEHTWKMLLSVCRSWAAWCKLNNRKWFPAEPEDVRDYLLYLQARGLAVKTIQQHLGQLNMLHRRSGLPRPSDSNAVSLVMRRIRKENVDAGERAKQALAFERTDFDQVRSLMENSDRCQDIRNLAFLGIAYNTLLRIAEIARIRVKDISRTDGGRMLIHIGRTFTLVSTAGVEKALSLGVTKLVERWISVSGVADDPNNYLFCRVRKNGVAAPSATSQLSTRALEGIFEATHRLIYGAKDDSGQRYLAWSGHSARVGAARDMARAGVSIPEIMQAGGWTNVNIVMNYIRNLDSETGAMVRLLEDGD")
94

The record that follows has no Median dimer activity (recombination on loxP) shown yet.
Ask | Report Median dimer activity (recombination on loxP) for Cre recombinase monomer with R292P mutation (protein) MSNLLTVHQNLPALPVDATSDEVRKNLMDMFRDRQAFSEHTWKMLLSVCRSWAAWCKLNNRKWFPAEPEDVRDYLLYLQARGLAVKTIQQHLGQLNMLHRRSGLPRPSDSNAVSLVMRRIRKENVDAGERAKQALAFERTDFDQVRSLMENSDRCQDIRNLAFLGIAYNTLLRIAEIARIRVKDISRTDGGRMLIHIGRTKTLVSTAGVEKALSLGVTKLVERWISVSGVADDPNNYLFCRVRKNGVAAPSATSQLSTRALEGIFEATHRLIYGAKDDSGQRYLAWSGHSAPVGAARDMARAGVSIPEIMQAGGWTNVNIVMNYIRNLDSETGAMVRLLEDGD please.
Reply | 76
